PROTOCOL NOTES: in vitro
RUN PARAMETERS: PAMPA, pH 7.4
METRIC: Papp (×10⁻⁶ cm/s)

{"columns": ["COMPOUND", "RESULT VALUE"],
 "data": [
  ["CCCCCCOc1ccc(-c2ccc(C(=O)CCN(C)C)cc2)cc1", 150],
  ["CCCCCCSc1cc(Cl)c(C(=O)CCN2CCOCC2)c(Cl)c1", 10],
  ["CCCCNC(=O)Nc1ccc(C(=O)CCN(C)C)cc1", 10],
  ["CCCCCCOc1ccc(C(=O)CCN(C)C)cc1OC", 950],
  ["CCCCCCSc1cc(C)c(C(=O)CCN2CC2C)c(C)c1 (configuration not stated)", 770],
  ["CCCCCCS(=O)(=O)c1cc(Cl)c(C(=O)CCN2CC2C)cc1Cl (configuration not stated)", 260],
  ["CCCCCCOc1ccc(C(=O)CCN(CCCC)CCCC)cc1", 560],
  ["CCCCCC(=O)Nc1ccc(C(=O)CCN(C)C)cc1", 560],
  ["CCCN1CCN(c2ccc(C(=O)CCN(C)C)cc2)CC1", 320]
]}

[A] CCCCCCOc1ccc2c(c1)CCC(CN(C)C)C2=O (configuration not stated)
[B] CCCCCCOc1ccc(C(=O)CCNc2ccccc2)cc1
Of A and B , which one carries the higher reported Papp? Mark your selection by writing its label. A

====

PROTOCOL NOTES: in vitro
RUN PARAMETERS: PAMPA, pH 7.4
METRIC: Papp (×10⁻⁶ cm/s)

Some solved cases for reference:
{"columns": ["COMPOUND", "UNIT ABBREV", "Papp"],
 "data": [
  ["CCCCCCOc1ccc(C(=O)CCN(C)C)c2ccccc12", "×10⁻⁶ cm/s", 660],
  ["CCCCCCOc1ccc(C(=O)CCN2CC2C)c(Cl)c1 (stereo unspecified)", "×10⁻⁶ cm/s", 870],
  ["CCCCCCOc1ccc(C(=O)CCN(C)C)c(I)c1", "×10⁻⁶ cm/s", 270],
  ["CCOCCOc1ccc(C(=O)CCN(C)C)cc1", "×10⁻⁶ cm/s", 160]
]}

[1] CCCCCCOc1cccc(C(=O)CCN(C)C)c1
[2] CCCCCS(=O)(=O)Nc1ccc(C(=O)CCN(C)C)cc1
Hi, I'm comparing two records. Which one has the lower Papp, 1 or 2 ? Mark your selection by writing its label. 2
(2: 50 ×10⁻⁶ cm/s, 1: 830 ×10⁻⁶ cm/s)

[I] CCCCCCOc1c(C)cc(C(=O)CCN(C)C)cc1C
[II] CCCCCCOc1ccc(C(=O)CCN(C)C)c(C(F)(F)F)c1
Hi, I'm comparing two records. Which one has the lower Papp, I or II ? Mark your selection by writing its label. II

====

PROTOCOL NOTES: in vitro
RUN PARAMETERS: PAMPA, pH 7.4
METRIC: Papp (×10⁻⁶ cm/s)

Some solved cases for reference:
{"columns": ["COMPOUND", "RESULT VALUE"],
 "data": [
  ["CCCCCCS(=O)(=O)c1cc(Cl)c(C(=O)CCN(C)C)c(Cl)c1", 170],
  ["CCCCCCS(=O)(=O)c1ccc(C(=O)CCN(C)C)c(Cl)c1", 380],
  ["CCCCCCOc1ccc(C(=O)CCN2CC2C)c(Cl)c1Cl (stereo unspecified)", 370],
  ["CCCCCCSc1ccc(C(=O)CCN(C)C)c(Cl)c1", 610],
  ["CCCCCCNC(=O)c1ccc(C(=O)CCN(C)C)cc1", 770]
]}

[A] CCCCCCOc1ccc(C(=O)CCN(C)C)cc1Cc1ccccc1
[B] CCCCCCOc1cc(Cl)c(C(=O)CCN2CCN(S(=O)(=O)CC)CC2)c(Cl)c1
[C] CCCCCCS(=O)(=O)c1ccc(C(=O)CCN2CCOCC2)c(Cl)c1Cl
[D] CCCCCCSc1ccc(C(=O)CCN2CCN(S(=O)(=O)CC)CC2)c(Cl)c1Cl
Order the records so the highest Papp appears first and the lowest last. Please list each label once, in the requested order. B, C, A, D
(B: 860 ×10⁻⁶ cm/s, C: 560 ×10⁻⁶ cm/s, A: 230 ×10⁻⁶ cm/s, D: 30 ×10⁻⁶ cm/s)

Reference source: ChEMBL document CHEMBL1151935
